# ASSAY_INFO: in vivo
# CONDITION_LABEL: rat, po
OBSERVED_PROPERTY: LD50

Consider "Cc1ccc(C(=O)c2ccc(CC(=O)NCC(=O)Nc3cccc(Cl)c3)n2C)cc1" . Its measured LD50 is > 1420 mg/kg

====

# Test system: hyperthermia induced by dry purified beer yeast
# ASSAY_INFO: antipyretic activity, beer yeast-induced hyperthermia
# Type: in vivo, Wistar strain male albino rats
# CONDITION_LABEL: i.p., 75 mg/kg, 2 h
# Experimental: Preparations of the compound were administered orally and/or parenterally in a suspension in 0.59% carboxymethylcellulose in pH neutral physiological saline. […]
Consider the following molecules; for each one, report its Temperature decrease %.
The reply should contain only the number, in %.

The measured Temperature decrease % that "Cc1ccc(C(=O)c2ccc(CC(=O)NCC(=O)Nc3cccc(Cl)c3)n2C)cc1" showed for hyperthermia induced by dry purified beer yeast is 36.1

Temperature decrease % for hyperthermia induced by dry purified beer yeast with input "COc1ccccc1NC(=O)CNC(=O)Cc1ccc(C(=O)c2ccc(C)cc2)n1C" equals 36.1

Assay hyperthermia induced by dry purified beer yeast, sample "COc1ccc(OC)c(NC(=O)CNC(=O)Cc2ccc(C(=O)c3ccc(C)cc3)n2C)c1" , Temperature decrease % read: 34.5

Value sought: Temperature decrease %, system hyperthermia induced by dry purified beer yeast, item "Cc1ccc(C(=O)c2ccc(CC(=O)NCC(=O)Nc3cccc(C)c3C)n2C)cc1" . Result: 30.1

Lab entry: hyperthermia induced by dry purified beer yeast assay, molecule Cc1ccc(C(=O)c2ccc(CC(=O)O)n2C)cc1 [Tolmetin Na.2H2 O, reference compound] , Temperature decrease % = 29.2

====

# Test system: gastric mucosa
# ASSAY_INFO: gastric tolerance (ulcerogenic activity)
# CONDITION_LABEL: 200 mg/kg, orally, four consecutive days
What Mean number lesions was measured for each of the following?

Reported Mean number lesions of Cc1ccc(C(=O)c2ccc(CC(=O)O)n2C)cc1 [Tolmetin Na.2H2 O, reference compound] : 3

Data point: "COc1ccccc1NC(=O)CNC(=O)Cc1ccc(C(=O)c2ccc(C)cc2)n1C" ; Mean number lesions = 2

Reported Mean number lesions of "Cc1ccc(C(=O)c2ccc(CC(=O)NCC(=O)Nc3cccc(C)c3C)n2C)cc1" : 3

Mean number lesions recorded for this compound, "Cc1ccc(C(=O)c2ccc(CC(=O)NCC(=O)Nc3cccc(Cl)c3)n2C)cc1" , is 3

Data point: "COc1ccc(OC)c(NC(=O)CNC(=O)Cc2ccc(C(=O)c3ccc(C)cc3)n2C)c1" ; Mean number lesions = 3

====

Answer each item with its documented Temperature decrease %.
# Tested on: hyperthermia induced by dry purified beer yeast
# ASSAY_INFO: antipyretic activity, beer yeast-induced hyperthermia
# Format: in vivo, Wistar strain male albino rats
# CONDITION_LABEL: os, 75 mg/kg, 1 h
Please give a number only; it is taken to be in %.

Kindly note the recorded Temperature decrease % for "COc1ccc(OC)c(NC(=O)CNC(=O)Cc2ccc(C(=O)c3ccc(C)cc3)n2C)c1" , which is 19.6

# compound "COc1ccccc1NC(=O)CNC(=O)Cc1ccc(C(=O)c2ccc(C)cc2)n1C" ; its Temperature decrease % = 18.0

Entry under test: "Cc1ccc(C(=O)c2ccc(CC(=O)NCC(=O)Nc3cccc(C)c3C)n2C)cc1" . Its Temperature decrease % was 18.2

The recorded Temperature decrease % for "Cc1ccc(C(=O)c2ccc(CC(=O)NCC(=O)Nc3cccc(Cl)c3)n2C)cc1" is 20.0

Documented Temperature decrease % of Cc1ccc(C(=O)c2ccc(CC(=O)O)n2C)cc1 [Tolmetin Na.2H2 O, reference compound] : 20.0

====

I'd be grateful if you could share measured Oedema inhibition % for these entries.
# System: carragenin-induced edema
# ASSAY_INFO: carragenin-induced edema test (antinflammatory activity)
# Format: in vivo, rats
# CONDITION_LABEL: os, 100 mg/kg, 3 h
Provide only the numeric value, understood in %.

"Cc1ccc(C(=O)c2ccc(CC(=O)NCC(=O)Nc3cccc(Cl)c3)n2C)cc1" yielded Oedema inhibition % of 61.9

Sample "Cc1ccc(C(=O)c2ccc(CC(=O)NCC(=O)Nc3cccc(C)c3C)n2C)cc1" ; Oedema inhibition % observed: 69.7

Oedema inhibition % recorded for this compound, "COc1ccc(OC)c(NC(=O)CNC(=O)Cc2ccc(C(=O)c3ccc(C)cc3)n2C)c1" , is 72.3

Looking up "COc1ccccc1NC(=O)CNC(=O)Cc1ccc(C(=O)c2ccc(C)cc2)n1C" , I found its Oedema inhibition % recorded as 77.1

Recorded result, Cc1ccc(C(=O)c2ccc(CC(=O)O)n2C)cc1 [Tolmetin Na.2H2 O, reference compound] , Oedema inhibition %: 56.1

====

# Tested on: carragenin-induced edema
# ASSAY_INFO: carragenin-induced edema test (antinflammatory activity)
# Type: in vivo, rats
# CONDITION_LABEL: os, 10 mg/kg, 3 h
OBSERVED_PROPERTY: Oedema inhibition % (%)
Express the result in % but write the number alone.

response.value for "COc1ccc(OC)c(NC(=O)CNC(=O)Cc2ccc(C(=O)c3ccc(C)cc3)n2C)c1" (field: Oedema inhibition %) = 30.4

molecule Cc1ccc(C(=O)c2ccc(CC(=O)O)n2C)cc1 [Tolmetin Na.2H2 O, reference compound] , Oedema inhibition % observed: 32.0

Lab note: measured Oedema inhibition % of "Cc1ccc(C(=O)c2ccc(CC(=O)NCC(=O)Nc3cccc(Cl)c3)n2C)cc1" was 29.8

Entry "Cc1ccc(C(=O)c2ccc(CC(=O)NCC(=O)Nc3cccc(C)c3C)n2C)cc1" — recorded Oedema inhibition % = 32.6

# molecule "COc1ccccc1NC(=O)CNC(=O)Cc1ccc(C(=O)c2ccc(C)cc2)n1C" ; its Oedema inhibition % = 47.2

====

# System: hyperthermia induced by dry purified beer yeast
# ASSAY_INFO: antipyretic activity, beer yeast-induced hyperthermia
# Type: in vivo, Wistar strain male albino rats
# CONDITION_LABEL: os, 50 mg/kg, 24 h
I'd appreciate it if you could supply Temperature decrease % values for the items below.
Reply numerically in %, unit not repeated.

Notebook: COc1ccccc1NC(=O)CNC(=O)Cc1ccc(C(=O)c2ccc(C)cc2)n1C [Compound 1d] , Temperature decrease % read as 30.1

The measured Temperature decrease % associated with COc1ccc(OC)c(NC(=O)CNC(=O)Cc2ccc(C(=O)c3ccc(C)cc3)n2C)c1 [Compound 1g] reads 29.1

Short answer for Cc1ccc(C(=O)c2ccc(CC(=O)NCC(=O)Nc3cccc(C)c3C)n2C)cc1 [Compound 1f] : Temperature decrease % was 28.7

Form: molecule = Cc1ccc(C(=O)c2ccc(CC(=O)NCC(=O)Nc3cccc(Cl)c3)n2C)cc1 [Compound 1b] ; Temperature decrease % = 29.8

Please fill in: Temperature decrease % reported for Cc1ccc(C(=O)c2ccc(CC(=O)O)n2C)cc1 [Tolmetin Na.2H2 O, reference compound] = 29.5

====

Field: Oedema inhibition %. Provide a value for each of the compounds that follow.
# Test system: carragenin-induced edema
# ASSAY_INFO: carragenin-induced edema test (antinflammatory activity)
# Assay type: in vivo, rats
# CONDITION_LABEL: os, 10 mg/kg, 24 h
Give a bare numeral; the unit % is implied.

According to the records, this compound Cc1ccc(C(=O)c2ccc(CC(=O)O)n2C)cc1 [Tolmetin Na.2H2 O, reference compound] displays Oedema inhibition % of 0.0

Entry "Cc1ccc(C(=O)c2ccc(CC(=O)NCC(=O)Nc3cccc(C)c3C)n2C)cc1" ; Oedema inhibition % = 0.0

The reported value for "COc1ccccc1NC(=O)CNC(=O)Cc1ccc(C(=O)c2ccc(C)cc2)n1C" in terms of Oedema inhibition % is 9.0

// "Cc1ccc(C(=O)c2ccc(CC(=O)NCC(=O)Nc3cccc(Cl)c3)n2C)cc1" : Oedema inhibition % value = 0.0

For this compound ( "COc1ccc(OC)c(NC(=O)CNC(=O)Cc2ccc(C(=O)c3ccc(C)cc3)n2C)c1" ), measured Oedema inhibition % is 1.2

====

I'd appreciate it if you could supply Mean number lesions values for the items below.
# Tested on: gastric mucosa
# ASSAY_INFO: gastric tolerance (ulcerogenic activity)
# CONDITION_LABEL: 50 mg/kg, orally, four consecutive days
Kindly provide the number alone.

The observed Mean number lesions for COc1ccccc1NC(=O)CNC(=O)Cc1ccc(C(=O)c2ccc(C)cc2)n1C [Compound 1d] when tested with gastric mucosa stands at 1

GET /values?item= Cc1ccc(C(=O)c2ccc(CC(=O)NCC(=O)Nc3cccc(C)c3C)n2C)cc1 [Compound 1f] &system= gastric mucosa returns Mean number lesions: 1

Measured Mean number lesions for this entry Cc1ccc(C(=O)c2ccc(CC(=O)O)n2C)cc1 [Tolmetin Na.2H2 O, reference compound] on gastric mucosa: 2

Form: item Cc1ccc(C(=O)c2ccc(CC(=O)NCC(=O)Nc3cccc(Cl)c3)n2C)cc1 [Compound 1b] ; test system gastric mucosa; Mean number lesions: 1

Tested system gastric mucosa; Mean number lesions recorded for COc1ccc(OC)c(NC(=O)CNC(=O)Cc2ccc(C(=O)c3ccc(C)cc3)n2C)c1 [Compound 1g] was 1
